TARGET_SYSTEM: Telomerase reverse transcriptase (Homo sapiens, UniProt O14746)
Sequence (O14746 whole entry): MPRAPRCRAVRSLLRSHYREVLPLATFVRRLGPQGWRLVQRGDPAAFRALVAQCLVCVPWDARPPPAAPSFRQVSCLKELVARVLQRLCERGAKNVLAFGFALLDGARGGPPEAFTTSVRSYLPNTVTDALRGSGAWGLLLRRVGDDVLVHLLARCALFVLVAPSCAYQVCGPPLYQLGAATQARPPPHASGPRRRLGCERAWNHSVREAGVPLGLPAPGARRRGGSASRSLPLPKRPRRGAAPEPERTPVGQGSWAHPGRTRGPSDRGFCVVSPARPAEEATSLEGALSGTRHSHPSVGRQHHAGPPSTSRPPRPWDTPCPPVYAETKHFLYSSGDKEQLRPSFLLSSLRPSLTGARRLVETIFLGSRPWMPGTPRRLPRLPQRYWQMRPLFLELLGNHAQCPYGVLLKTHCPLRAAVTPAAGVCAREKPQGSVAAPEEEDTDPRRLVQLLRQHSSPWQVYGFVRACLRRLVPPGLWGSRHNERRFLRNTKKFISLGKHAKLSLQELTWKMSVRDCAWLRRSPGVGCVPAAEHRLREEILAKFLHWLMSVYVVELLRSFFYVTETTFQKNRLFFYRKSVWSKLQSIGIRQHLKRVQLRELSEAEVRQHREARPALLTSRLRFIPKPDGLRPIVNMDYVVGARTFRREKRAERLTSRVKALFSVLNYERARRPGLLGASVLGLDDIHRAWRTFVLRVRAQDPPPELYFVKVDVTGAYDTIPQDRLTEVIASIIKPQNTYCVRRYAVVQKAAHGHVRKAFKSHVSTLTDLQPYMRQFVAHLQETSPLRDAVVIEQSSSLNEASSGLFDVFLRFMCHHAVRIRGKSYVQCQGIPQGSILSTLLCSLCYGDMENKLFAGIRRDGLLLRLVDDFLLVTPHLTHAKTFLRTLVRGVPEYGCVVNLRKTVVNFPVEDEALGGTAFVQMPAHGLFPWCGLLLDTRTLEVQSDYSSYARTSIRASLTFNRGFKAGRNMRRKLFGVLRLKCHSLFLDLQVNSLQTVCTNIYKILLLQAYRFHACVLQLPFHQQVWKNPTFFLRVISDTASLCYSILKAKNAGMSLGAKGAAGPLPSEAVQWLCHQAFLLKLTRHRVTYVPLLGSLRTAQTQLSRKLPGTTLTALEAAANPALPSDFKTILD
EXPERIMENTAL_DETAILS: Inhibition of telomerase in human HepG2 cells after 24 hrs by TRAP-PCR-ELISA assay
QUANTITY_KIND: IC50 (µM)
Write it as a number; the unit µM goes unstated.

Which value of IC50 has been reported for Fc1ccc(CSc2nnc(-c3cnccn3)o2)cc1 in the records?
17.1

Also, Clc1cccc(CSc2nnc(-c3cnccn3)s2)c1 please.
3.12

Please give the result for Brc1cccc(CSc2nnc(-c3cnccn3)s2)c1 too.
1.54

Follow-up entry: Fc1cccc(F)c1CSc1nnc(-c2cnccn2)n1-c1ccccc1
24.2

Record: Clc1ccc(CSc2nnc(-c3cnccn3)s2)cc1
7.88

Now the same for Clc1ccc(CSc2nnc(-c3cnccn3)n2-c2ccccc2)cc1
13.4

Please give the result for Fc1ccc(CSc2nnc(-c3cnccn3)s2)cc1 too.
12.1

Likewise for Brc1ccc(CSc2nnc(-c3cnccn3)n2-c2ccccc2)cc1 ?
7.13

Also, Brc1ccc(CSc2nnc(-c3cnccn3)s2)cc1 please.
1.24

----------
Test system: HeLa
EXPERIMENTAL_DETAILS: Antiproliferative activity against human HeLa cells after 48 hrs by MTT method
Type: functional, cell-based
QUANTITY_KIND: pIC50
// pIC50 is dimensionless: -log10 of concentration (M)

Need pIC50 of Clc1ccc(CSc2nnc(-c3cnccn3)o2)cc1 , thanks.
4.61

Then Brc1ccc(CSc2nnc(-c3cnccn3)s2)cc1 ?
4.91

One more compound: Clc1ccccc1CSc1nnc(-c2cnccn2)s1
4.54

Moving on to the next compound: c1ccc(CSc2nnc(-c3cnccn3)o2)cc1
4.68

Would you mind doing Clc1ccccc1CSc1nnc(-c2cnccn2)o1 as well?
4.64

What would you report for Brc1ccc(CSc2nnc(-c3cnccn3)n2-c2ccccc2)cc1 ?
5.06

----------
Exercise: for every item that follows, state its recorded pIC50.
TARGET_SYSTEM: Telomerase reverse transcriptase (Homo sapiens)
EXPERIMENTAL_DETAILS: Inhibition of telomerase in human HepG2 cells after 24 hrs by TRAP-PCR-ELISA assay
Formally, pIC50 is defined as -log10 of the concentration c, with c in mol/L.

# query: pIC50 of entry Brc1ccccc1CSc1nnc(-c2cnccn2)o1
5.45

Queued: Fc1ccccc1CSc1nnc(-c2cnccn2)n1-c1ccccc1
4.75

One more compound: Clc1cccc(CSc2nnc(-c3cnccn3)o2)c1
5.20

Request: Brc1ccccc1CSc1nnc(-c2cnccn2)s1
5.40

Moving on to the next compound: Brc1cccc(CSc2nnc(-c3cnccn3)o2)c1
5.44

Try this compound too: Fc1ccc(CSc2nnc(-c3cnccn3)n2-c2ccccc2)cc1
4.82

----------
Tested on: HeLa
EXPERIMENTAL_DETAILS: Antiproliferative activity against human HeLa cells after 48 hrs by MTT method
Assay type: functional, cell-based
Each record gets a class by IC50: L = under 10 µM, M = from 10 µM up to 30 µM, H = 30 µM and over

Please classify: Fc1ccc(CSc2nnc(-c3cnccn3)o2)cc1
H

Moving on to Brc1cccc(CSc2nnc(-c3cnccn3)s2)c1
L

Note, next up: Fc1ccc(CSc2nnc(-c3cnccn3)s2)cc1
H

Again, but for c1ccc(CSc2nnc(-c3cnccn3)n2-c2ccccc2)cc1
H

Repeat with Brc1ccccc1CSc1nnc(-c2cnccn2)s1
M

And then O=c1[nH]cc(F)c(=O)[nH]1 [FLUOROURACIL] , what is it?
L

Same question for c1ccc(CSc2nnc(-c3cnccn3)s2)cc1 please.
H

Next up: Fc1ccc(CSc2nnc(-c3cnccn3)s2)c(F)c1
M

Next: Fc1cccc(F)c1CSc1nnc(-c2cnccn2)o1
H

Moving on to the next molecule: Brc1ccccc1CSc1nnc(-c2cnccn2)n1-c1ccccc1
H

Follow-up item: Clc1cccc(CSc2nnc(-c3cnccn3)o2)c1
M

Try the molecule Clc1cccc(CSc2nnc(-c3cnccn3)n2-c2ccccc2)c1
M

Next up: Brc1ccc(CSc2nnc(-c3cnccn3)o2)cc1
M

And for Brc1cccc(CSc2nnc(-c3cnccn3)n2-c2ccccc2)c1 ?
L

Try the molecule Fc1ccc(CSc2nnc(-c3cnccn3)n2-c2ccccc2)c(F)c1
M

Try the molecule Fc1cccc(F)c1CSc1nnc(-c2cnccn2)n1-c1ccccc1
H

Record: Brc1ccccc1CSc1nnc(-c2cnccn2)o1
L

Next molecule: Fc1ccc(CSc2nnc(-c3cnccn3)n2-c2ccccc2)cc1
L

Okay, and Clc1ccc(CSc2nnc(-c3cnccn3)s2)cc1 ?
M

One more molecule: Fc1ccccc1CSc1nnc(-c2cnccn2)s1
H

Entry to check: Fc1ccc(CSc2nnc(-c3cnccn3)o2)c(F)c1
M

// same read-out, input: Fc1ccccc1CSc1nnc(-c2cnccn2)n1-c1ccccc1
H

Moving on to the next molecule: Fc1ccccc1CSc1nnc(-c2cnccn2)o1
M

----------
Test system: HeLa
EXPERIMENTAL_DETAILS: Antiproliferative activity against human HeLa cells after 48 hrs by MTT method
Format: functional, cell-based
Can you tell me IC50 for the items I'm about to list?
Give the value, in units of µM, as a plain number.

Returns the measured IC50 for the input compound. Input: Fc1cccc(F)c1CSc1nnc(-c2cnccn2)s1
29.2

Consider next the compound Clc1cccc(CSc2nnc(-c3cnccn3)s2)c1 in the same way.
29.7

Queued: Brc1cccc(CSc2nnc(-c3cnccn3)o2)c1
30.3
